Study target: human recombinant adrenergic α2B receptor (Homo sapiens)
Construct: expressed in transfected cells; host or cells: CHO-K1
Sequence (P18089 whole entry): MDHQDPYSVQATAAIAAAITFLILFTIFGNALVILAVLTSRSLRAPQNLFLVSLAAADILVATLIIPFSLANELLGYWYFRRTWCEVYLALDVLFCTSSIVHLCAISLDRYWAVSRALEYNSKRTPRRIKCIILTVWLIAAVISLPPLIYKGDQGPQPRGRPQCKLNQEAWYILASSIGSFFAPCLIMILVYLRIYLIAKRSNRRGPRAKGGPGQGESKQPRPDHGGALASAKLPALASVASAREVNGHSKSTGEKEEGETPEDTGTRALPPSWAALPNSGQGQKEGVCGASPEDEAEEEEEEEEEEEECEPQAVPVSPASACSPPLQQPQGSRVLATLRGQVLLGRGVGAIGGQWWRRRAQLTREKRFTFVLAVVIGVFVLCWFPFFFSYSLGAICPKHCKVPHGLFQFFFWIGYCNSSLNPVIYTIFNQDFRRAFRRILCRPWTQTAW
Method notes: Radioligand binding, adrenergic α2B ([3H]Rauwolscine)
Recorded conditions: read-out: Percentage inhibition of ligand binding, Adrenergic α2B (0.1 μM), compound at 0.1 μM; [3H]Rauwolscine; repeat datapoints each shown
Recorded endpoint: inhibition at 0.1 µM (%)

{"Compound": "Cc1ccc2c(c1)c1c(n2CC(O)c2cnn(C)c2)CCN(C)C1 (single isomer, unassigned) [131b]", "Recorded endpoint": "inhibition at 0.1 µM", "Measurement units": "%", "Observed": 90}
{"Compound": "C/C(=C\\n1c2c(c3cc(C)ccc31)CN(C)CC2)c1ccc(C)nc1", "Recorded endpoint": "inhibition at 0.1 µM", "Measurement units": "%", "Observed": 100}
{"Compound": "Cc1ccc(C(C)(O)Cn2c3c(c4cc(Cl)ccc42)CN(C)CC3)cn1 (stereo not drawn)", "Recorded endpoint": "inhibition at 0.1 µM", "Measurement units": "%", "Observed": 87}
{"Compound": "C/C(=C\\n1c2c(c3cc(C)ccc31)C1CCC(C2)N1C)c1ccccc1F (stereo not drawn)", "Recorded endpoint": "inhibition at 0.1 µM", "Measurement units": "%", "Observed": 87}
{"Compound": "C=C(Cn1c2c(c3cc(C)ccc31)CN(C)CC2)c1ccncc1", "Recorded endpoint": "inhibition at 0.1 µM", "Measurement units": "%", "Observed": 88}
{"Compound": "C/C(=C\\n1c2c(c3cc(Cl)ccc31)CCN(C)CC2)c1ccccc1F", "Recorded endpoint": "inhibition at 0.1 µM", "Measurement units": "%", "Observed": 103}
{"Compound": "C/C(=C\\n1c2c(c3cc(C)ccc31)CN(C)CC2)c1sccc1C", "Recorded endpoint": "inhibition at 0.1 µM", "Measurement units": "%", "Observed": 104}
{"Compound": "CN1CCc2c(c3cccc(Cl)c3n2CCc2ccccc2)C1", "Recorded endpoint": "inhibition at 0.1 µM", "Measurement units": "%", "Observed": 103}
{"Compound": "C/C(=C\\n1c2c(c3cc(C)ccc31)CN(C)CC2)c1cccc(F)c1", "Recorded endpoint": "inhibition at 0.1 µM", "Measurement units": "%", "Observed": 99}
{"Compound": "COc1ccc(C(C)(O)Cn2c3c(c4cc(Cl)ccc42)C2CCC(C3)N2C)cc1F (stereo not drawn)", "Recorded endpoint": "inhibition at 0.1 µM", "Measurement units": "%", "Observed": 40}
{"Compound": "Cc1ccc2c(c1)c1c(n2CCC2CCCCC2)CCN(C)C1", "Recorded endpoint": "inhibition at 0.1 µM", "Measurement units": "%", "Observed": 70}
{"Compound": "CN1CCc2c(c3ccc(Cl)cc3n2CCc2ccccc2)C1", "Recorded endpoint": "inhibition at 0.1 µM", "Measurement units": "%", "Observed": 102}
{"Compound": "C/C(=C\\n1c2c(c3cc(C)ccc31)C1CCC(C2)N1C)c1ccc(Cl)cc1Cl (stereo not drawn)", "Recorded endpoint": "inhibition at 0.1 µM", "Measurement units": "%", "Observed": 80}
{"Compound": "Cc1cnc2c(c1)c1c(n2CCc2ccc(C)nc2)CC2CCCN2C1 (stereo not drawn)", "Recorded endpoint": "inhibition at 0.1 µM", "Measurement units": "%", "Observed": 45}
{"Compound": "Cc1ccc2c(c1)c1c(n2CC(O)c2ccc(C(N)=O)cc2)CCN(C)C1 (stereo not drawn)", "Recorded endpoint": "inhibition at 0.1 µM", "Measurement units": "%", "Observed": 87}
{"Compound": "COc1ccc(/C(C)=C/n2c3c(c4cc(C)ccc42)CCN(C)CC3)c(F)c1", "Recorded endpoint": "inhibition at 0.1 µM", "Measurement units": "%", "Observed": 104}
{"Compound": "Cc1ccc2c(c1)c1c(n2CCc2cncc(Cl)c2)CCN(C)CC1", "Recorded endpoint": "inhibition at 0.1 µM", "Measurement units": "%", "Observed": 77}
{"Compound": "CCC(O)(Cn1c2c(c3cc(Cl)ccc31)CN(C)CC2)c1ccc(F)cc1 (stereo not drawn)", "Recorded endpoint": "inhibition at 0.1 µM", "Measurement units": "%", "Observed": 35}
{"Compound": "Cc1ccc(CCn2c3c(c4ccc(C(F)(F)F)cc42)CN(C)CC3)cn1", "Recorded endpoint": "inhibition at 0.1 µM", "Measurement units": "%", "Observed": 60}
{"Compound": "CCC1c2c(c3cc(Cl)ccc3n2CC(C)(O)c2ccc(F)cc2)CCN1C (stereo not drawn)", "Recorded endpoint": "inhibition at 0.1 µM", "Measurement units": "%", "Observed": 13}
{"Compound": "Cc1ccc2c(c1)c1c(n2CC(C)(F)c2ccncc2)CCN(C)C1 (stereo not drawn)", "Recorded endpoint": "inhibition at 0.1 µM", "Measurement units": "%", "Observed": 77}
{"Compound": "Cc1cnc2c(c1)c1c(n2CCc2ccc(C(N)=O)nc2)CCN2CCCC12 (stereo not drawn)", "Recorded endpoint": "inhibition at 0.1 µM", "Measurement units": "%", "Observed": 82}
{"Compound": "CN1CCc2c(c3cc(Cl)ccc3n2CCc2ccc(F)cc2)C1", "Recorded endpoint": "inhibition at 0.1 µM", "Measurement units": "%", "Observed": 102}
{"Compound": "Cc1cnc2c(c1)c1c(n2CCc2ccc(C(F)(F)F)nc2)CCN2CCCC12 (stereo not drawn)", "Recorded endpoint": "inhibition at 0.1 µM", "Measurement units": "%", "Observed": 98}
{"Compound": "Cc1ccc(C(O)Cn2c3c(c4cc(C)ccc42)CN(C)CC3)cc1 (racemic)", "Recorded endpoint": "inhibition at 0.1 µM", "Measurement units": "%", "Observed": 80}
{"Compound": "Cc1ccc(CCn2c3c(c4cccnc42)CN2CCCC2C3)cn1 (stereo not drawn)", "Recorded endpoint": "inhibition at 0.1 µM", "Measurement units": "%", "Observed": 33}
{"Compound": "CN1CCc2c(c3ccccc3n2CC(C)(O)c2cccnc2)C1 (single isomer, unassigned) [173a]", "Recorded endpoint": "inhibition at 0.1 µM", "Measurement units": "%", "Observed": 82}
{"Compound": "C/C(=C\\n1c2c(c3cc(C)ccc31)CN(C)CC2)c1ccncn1", "Recorded endpoint": "inhibition at 0.1 µM", "Measurement units": "%", "Observed": 63}
{"Compound": "C/C(=C\\n1c2c(c3cc(C)ccc31)CCN(C)C2)c1ccc(Cl)cc1", "Recorded endpoint": "inhibition at 0.1 µM", "Measurement units": "%", "Observed": 69}
{"Compound": "C/C(=C\\n1c2c(c3cc(C)ccc31)CN(C)CC2)c1c(C)noc1C", "Recorded endpoint": "inhibition at 0.1 µM", "Measurement units": "%", "Observed": 62}
{"Compound": "C/C(=C/n1c2c(c3cc(C)ccc31)CN(C)CC2)c1cccc(F)c1", "Recorded endpoint": "inhibition at 0.1 µM", "Measurement units": "%", "Observed": 98}
{"Compound": "Cc1ccc2c(c1)c1c(n2CC(C)(O)c2ccc(O)cc2)CCN(C)C1 (stereo not drawn)", "Recorded endpoint": "inhibition at 0.1 µM", "Measurement units": "%", "Observed": 96}
{"Compound": "CN1CCc2c(c3cc(C(F)(F)F)ccc3n2CC(C)(O)c2cccnc2)C1 (single isomer, unassigned) [174a]", "Recorded endpoint": "inhibition at 0.1 µM", "Measurement units": "%", "Observed": 86}
{"Compound": "C/C(=C\\n1c2c(c3cc(C)ccc31)CN(C)CC2)c1ccnn1C", "Recorded endpoint": "inhibition at 0.1 µM", "Measurement units": "%", "Observed": 88}
{"Compound": "C/C(=C\\n1c2c(c3cc(Cl)ccc31)CN(C)CC2)c1ccncc1", "Recorded endpoint": "inhibition at 0.1 µM", "Measurement units": "%", "Observed": 94}
{"Compound": "Cc1ccc(CCn2c3c(c4cc(C(F)(F)F)ccc42)CN(C)CC3)cc1", "Recorded endpoint": "inhibition at 0.1 µM", "Measurement units": "%", "Observed": 63}

The values you see were collected from patent US8791132B2.
